Can you tell me IC50 for the items I'm about to list?
system: γ-secretase; production of amyloid beta protein Aβ(1-42); test: Cell-Based γ-Secretase Assay with ELISA Readout; conditions: human WT-APP overexpressing CHO cells; footnote 8: single determination; read-out: Aβ 42B IC50 (nM) (Geometric Mean of 2-8 Determinations)
Where a name gives a salt, the structure may show the parent alone.
Write the answer as a number in nM, unit excluded.

Task: Find the recorded IC50 belonging to CC(C)CCN(CC1(F)CCCCC1)[C@@H]1CC[C@@H](CC(=O)O)C[C@H]1c1ccc(C(F)(F)F)cc1 [Example 14] and report it.
Output: 103

Task: Find the recorded IC50 belonging to CC(C)CCN(CCC(F)(F)F)[C@@H]1CC[C@@H](CC(=O)O)C[C@H]1c1ccc(C(F)(F)F)cc1 (racemic) [Example 9, acetic acid, hydrochloride salt] and report it.
Output: 618

Task: Find the recorded IC50 belonging to O=C(O)C[C@@H]1CC[C@@H](N(CC2CCCC2)CC2CCCC2)[C@H](c2ccc(C(F)(F)F)nc2)O1 [Example 19] and report it.
Output: 837

Task: Find the recorded IC50 belonging to O=C(O)C[C@@H]1CC[C@@H](N(Cc2cccc(F)c2)CC2CCCC2)[C@H](c2ccc(C(F)(F)F)cc2)C1 [Example 28] and report it.
Output: 230

Task: Find the recorded IC50 belonging to CC1(CN(CC2CCCC2)[C@@H]2CC[C@@H](CC(=O)O)C[C@H]2c2ccc(C(F)(F)F)cc2)CCCC1 [Example 21] and report it.
Output: 435

Task: Find the recorded IC50 belonging to O=C(O)C[C@@H]1CC[C@@H](N(Cc2ccccc2F)CC2CCCC2)[C@H](c2ccc(C(F)(F)F)cc2)C1 [Example 27] and report it.
Output: 155

Task: Find the recorded IC50 belonging to O=C(O)C[C@H]1CC[C@@H](N(CC2CCCC2)CC2CCCC2)[C@H](c2ccc(C(F)(F)F)cc2)O1 [Example 22] and report it.
Output: 6390
